system: johnsongrass (Sorghum halepense, SORHA); assay: Pre-emerge test, greenhouse herbicide activity screening; format: in vivo; details: 250 g ai/ha; rating scale 0-100, 14 days after application
For each of the compounds below, state its Pre-emerge herbicidal activity, phytotoxicity rating SORHA.
Numbers only.

Previously resolved entries follow.
CCOC(=O)CCc1c(OC)c(Cl)cc(F)c1-n1c(=O)cc(C(F)(F)F)n(C)c1=O [14-1]	90
COc1c(Cl)cc(F)c(-n2c(=O)cc(C(F)(F)F)n(C)c2=O)c1CC(Cl)C(=O)OCC(F)(F)C(F)(F)C(F)(F)F (single isomer, unassigned) [14-24]	0
CCCCCOC(=O)C(Cl)Cc1c(OC)c(Cl)cc(F)c1-n1c(=O)cc(C(F)(F)F)n(C)c1=O (single isomer, unassigned) [14-11]	0
CCCOC(=O)C(Cl)Cc1c(OC)c(Cl)cc(F)c1-n1c(=O)cc(C(F)(F)F)n(C)c1=O (single isomer, unassigned) [14-6]	30
COc1c(Cl)cc(F)c(-n2c(=O)cc(C(F)(F)F)n(C)c2=O)c1CC(Cl)C(=O)OCC(Br)CBr (single isomer, unassigned) [14-30]	0

Turning now to a further record.
IN: Notebook entry, johnsongrass (Sorghum halepense, SORHA) assay: Pre-emerge herbicidal activity, phytotoxicity rating SORHA of CCCOC(=O)C(Cl)Cc1c(OC)c(Cl)cc(F)c1-n1c(=O)cc(C(F)(F)F)n(C)c1=O (single isomer, unassigned) [14-7] = ?
OUT: 70

====

tested on: upland rice (Oryza sp., var. Tebonnet, RICE); test: Post-emerge test, crop safety; format: in vivo; settings: 63 g ai/ha; phytotoxicity rating 0-100 (0 no damage, 100 complete death), 14 days after application
readout-type: Post-emerge Herbicidal Activity RICE (crop damage)
Give bare numbers.

Previously resolved entries follow.
CCOC(=O)C(C)Nc1c(OC)c(Cl)cc(F)c1-n1c(=O)cc(C(F)(F)F)n(C)c1=O (centres unmarked)	0
CCOC(=O)C(C)Nc1cc(OC(F)F)cc(F)c1-n1c(=O)cc(C(F)(F)F)n(C)c1=O (centres unmarked)	10
COc1c(Cl)cc(F)c(-n2c(=O)cc(C(F)(F)F)n(C)c2=O)c1NC(=O)C(C)(C)C	0
COc1c(Cl)cc(F)c(-n2c(=O)cc(C(F)(F)F)n(C)c2=O)c1N=C(Cl)C(Cl)(Cl)Cl	0
Cn1c(C(F)(F)F)cc(=O)n(-c2c(N)cc(OC(F)F)cc2F)c1=O	10

Below are some compounds; for each one, tell me its Post-emerge Herbicidal Activity RICE (crop damage).
1. C=C(C)C(=O)N(C(=O)C(=C)C)c1c(OC)c(Cl)cc(F)c1-n1c(=O)cc(C(F)(F)F)n(C)c1=O
2. COc1c(Cl)cc(F)c(-n2c(=O)c([N+](=O)[O-])c(C(F)(F)F)n(C)c2=O)c1[N+](=O)[O-]
3. COc1c(Cl)cc(F)c(-n2c(=O)cc(C(F)(F)F)n(C)c2=O)c1NC(=O)c1ccc(C)cc1

OUT:
1: 0; 2: 40; 3: 70

====

system: lambsquarters (Chenopodium album, CHEAL); assay: Post-emerge test, greenhouse herbicide activity screening; format: in vivo; conditions: Rate 250 g ai/ha; rating scale 0-100 (0 no damage, 100 complete death); 14 days after application
readout-type: Post-emerge Herbicidal Activity, phytotoxicity rating CHEAL
Numbers only.

Previously resolved entries follow.
COc1c(Cl)cc(F)c(-n2c(=O)cc(C(F)(F)F)n(C)c2=O)c1CC(Cl)C(=O)OCC(F)(F)C(F)(F)C(F)(F)F (single isomer, unassigned)	80
COc1c(Cl)cc(F)c(-n2c(=O)cc(C(F)(F)F)n(C)c2=O)c1CC(C)(Cl)C(=O)OCc1ccccc1 (stereo not shown)	100
C#CCOC(=O)C(C)(Cl)Cc1c(OC)c(Cl)cc(F)c1-n1c(=O)cc(C(F)(F)F)n(C)c1=O (stereo not shown)	100
COc1c(Cl)cc(F)c(-n2c(=O)cc(C(F)(F)F)n(C)c2=O)c1CC(Cl)C(=O)OCC(Br)CBr (single isomer, unassigned)	90
CCOC(=O)CCc1c(OC)c(Cl)cc(F)c1-n1c(=O)cc(C(F)(F)F)n(C)c1=O	98

Below are some compounds; for each one, tell me its Post-emerge Herbicidal Activity, phytotoxicity rating CHEAL.
1. CCCOC(=O)C(C)(Cl)Cc1c(OC)c(Cl)cc(F)c1-n1c(=O)cc(C(F)(F)F)n(C)c1=O (stereo not shown)
2. COc1c(Cl)cc(F)c(-n2c(=O)cc(C(F)(F)F)n(C)c2=O)c1CC(Cl)C(=O)OC(C)(C)C (stereo not shown)

OUT:
1: 100; 2: 100

====

system: lambsquarters (Chenopodium album, CHEAL); assay: Post-emerge test, greenhouse herbicide activity screening; format: in vivo; details: post-emerge, 63 g ai/ha, phytotoxicity rating 0-100 at 14 days after application
readout-type: Post-emerge Herbicidal Activity CHEAL

Cc1nn(-c2c(Cl)cc(Cl)cc2NC(=O)c2ccc(F)cc2F)c(=O)n1C(F)F	85
COc1cccc(COC(=O)Nc2c(C)c(Cl)cc(F)c2-n2c(=O)cc(C(F)(F)F)n(C)c2=O)c1	100
COc1c(Cl)cc(F)c(N2C(=O)c3ccccc3C2=O)c1NC(=O)c1ccc(F)cc1F	95

Below are some compounds; for each one, tell me its Post-emerge Herbicidal Activity CHEAL.
1. COc1ccccc1COC(=O)Nc1c(C)c(Cl)cc(F)c1-n1c(=O)cc(C(F)(F)F)n(C)c1=O
2. C#CCOc1c(Cl)cc(F)c(N2C(=O)C3=C(CCCC3)C2=O)c1NC(=O)c1ccc(F)cc1F
3. O=C(Nc1cc(Cl)ccc1-n1c(=O)n2n(c1=S)CCCC2)c1ccc2ccccc2c1

OUT:
1: 100; 2: 90; 3: 95

Below are some compounds; for each one, tell me its Post-emerge Herbicidal Activity CHEAL.
1. O=C(Nc1cc(Cl)ccc1N1C(=O)C2=C(CCCC2)C1=O)c1ccc2ccccc2c1
2. COc1c(Cl)cc(F)c(-n2nnn(CCCF)c2=O)c1NC(=O)COCc1ccccc1
3. Cc1cc(C)c(COC(=O)Nc2c(C)c(Cl)cc(F)c2-n2c(=O)cc(C(F)(F)F)n(C)c2=O)c(C)c1

OUT:
1: 95; 2: 100; 3: 90

====

system: redroot pigweed (Amaranthus retroflexus, AMARE); assay: Post-emerge test, greenhouse herbicide activity screening; assay type: in vivo; details: 63 g ai/ha; phytotoxicity rating 0-100 (0 no damage, 100 complete death), 14 days after application
readout-type: Post-emerge Herbicidal Activity AMARE

Previously resolved entries follow.
Cn1c(C(F)(F)F)cc(=O)n(-c2c(N)cc(OC(F)F)cc2F)c1=O [Compound 1-51]	70
COc1c(Cl)cc(F)c(-n2c(=O)cc(C(F)(F)F)n(C)c2=O)c1N1CCCC1 [Compound 1-32]	10
CC(C)Oc1c(Cl)cc(F)c(-n2c(=O)cc(C(F)(F)F)n(C)c2=O)c1N [Compound 1-63]	10

Below are some compounds; for each one, tell me its Post-emerge Herbicidal Activity AMARE.
1. COc1c(Cl)cc(F)c(-n2c(=O)cc(C(F)(F)F)n(C)c2=O)c1N=CN(C)C [Compound 1-31]
2. COC(=O)C(=O)Nc1c(OC)c(Cl)cc(F)c1-n1c(=O)cc(C(F)(F)F)n(C)c1=O [2-15]
3. COc1c(Cl)cc(F)c(-n2c(=O)cc(C(F)(F)F)n(C)c2=O)c1N(C(=O)C=C(C)C)C(=O)C=C(C)C [2-8]

OUT:
10
0
0

Below are some compounds; for each one, tell me its Post-emerge Herbicidal Activity AMARE.
1. COc1c(Cl)cc(F)c(-n2c(=O)cc(C(F)(F)F)n(C)c2=O)c1NC(=O)c1ccc(C)cc1 [2-24]
2. COc1c(Cl)cc(F)c(-n2c(=O)cc(C(F)(F)F)n(C)c2=O)c1NC(=O)C=C(C)C [2-7]

OUT:
1. 100
2. 10

====

system: sicklepod (Cassia obtusifolia, CASOB); test: Pre-emerge test, greenhouse herbicide activity screening; assay type: in vivo; settings: 250 g ai/ha; pre-emerge; rated 14 days after application; 0 = no damage, 100 = complete death
For each of the compounds below, state its Pre-emerge Herbicidal Activity CASOB (phytotoxicity rating, scale 0-100).

Previously resolved entries follow.
COc1c(Cl)cc(F)c(-n2c(=O)cc(C(F)(F)F)n(C)c2=O)c1NC(=O)c1ccc(C)cc1 [2-24]	100
COc1c(Cl)cc(F)c(-n2c(=O)cc(C(F)(F)F)n(C)c2=O)c1NS(=O)(=O)c1ccc(C)cc1 [2-26]	0
COc1c(Cl)cc(F)c(-n2c(=O)cc(C(F)(F)F)n(C)c2=O)c1NC(=O)c1cccc(C)c1 [2-23]	100

Turning now to a further record.
IN: What measured Pre-emerge Herbicidal Activity CASOB (phytotoxicity rating, scale 0-100) goes with C=C(C)C(=O)N(C(=O)C(=C)C)c1c(OC)c(Cl)cc(F)c1-n1c(=O)cc(C(F)(F)F)n(C)c1=O [2-6] ?
OUT: 0

Data credit: patent US6355799B1
